# System: HepG2
# protocol: Anticancer activity against human HepG2 cells assessed as inhibition of cell viability incubated for 72 hrs by MTT assay
# Format: functional, cell-based
# assay-conditions: HepG2, 72 h
measured-metric: log10 IC50 (log10 of the value in µM)
Please keep in mind that the values are log10 of IC50 expressed in µM.

Field: example entries. Status: answers known.
O=C(Nc1cccc(OCc2cn(-c3ccccc3C(F)(F)F)nn2)c1)Nc1ccc(Cl)c(C(F)(F)F)c1    0.37
COc1ccc(-n2cc(COc3cccc(NC(=O)Nc4ccc(Cl)c(C(F)(F)F)c4)c3)nn2)cc1    0.67
N#Cc1cccc(-n2cc(COc3cccc(NC(=O)Nc4ccc(Cl)c(C(F)(F)F)c4)c3)nn2)c1    0.44
O=C(Nc1cccc(OCc2cn(-c3ccccc3)nn2)c1)Nc1ccc(Cl)c(C(F)(F)F)c1    0.25
CCc1cccc(-n2cc(COc3cccc(NC(=O)Nc4ccc(Cl)c(C(F)(F)F)c4)c3)nn2)c1    1.58
O=C(Nc1cccc(OCc2cn(-c3cccc(Br)c3)nn2)c1)Nc1ccc(Cl)c(C(F)(F)F)c1    0.02
O=C(Nc1cccc(OCc2cn(-c3ccccc3F)nn2)c1)Nc1ccc(Cl)c(C(F)(F)F)c1    0.18
CCc1ccc(-n2cc(COc3cccc(NC(=O)Nc4ccc(Cl)c(C(F)(F)F)c4)c3)nn2)cc1    0.29
O=C(Nc1cccc(OCc2cn(-c3ccc(Br)cc3)nn2)c1)Nc1ccc(Cl)c(C(F)(F)F)c1    0.44
CC(C)c1ccc(-n2cc(COc3cccc(NC(=O)Nc4ccc(Cl)c(C(F)(F)F)c4)c3)nn2)cc1    0.39

Dear colleague, could you please provide log10 IC50 for the compounds listed below?
1. Cc1ccccc1-n1cc(COc2cccc(NC(=O)Nc3ccc(Cl)c(C(F)(F)F)c3)c2)nn1
2. O=C(Nc1cccc(OCc2cn(-c3ccc(F)cc3)nn2)c1)Nc1ccc(Cl)c(C(F)(F)F)c1
3. O=C(Nc1cccc(OCc2cn(-c3ccc(Cl)cc3)nn2)c1)Nc1ccc(Cl)c(C(F)(F)F)c1
4. O=C(Nc1cccc(OCc2cn(-c3cccc(C(F)(F)F)c3)nn2)c1)Nc1ccc(Cl)c(C(F)(F)F)c1
5. Cc1ccc(-n2cc(COc3cccc(NC(=O)Nc4ccc(Cl)c(C(F)(F)F)c4)c3)nn2)cc1
6. CC(C)c1ccccc1-n1cc(COc2cccc(NC(=O)Nc3ccc(Cl)c(C(F)(F)F)c3)c2)nn1
7. N#Cc1ccccc1-n1cc(COc2cccc(NC(=O)Nc3ccc(Cl)c(C(F)(F)F)c3)c2)nn1

**Result**
0.54
0.13
0.40
0.10
0.73
0.28
0.29

Dear colleague, could you please provide log10 IC50 for the compounds listed below?
1. CC(C)c1cccc(-n2cc(COc3cccc(NC(=O)Nc4ccc(Cl)c(C(F)(F)F)c4)c3)nn2)c1
2. O=C(Nc1cccc(OCc2cn(-c3cccc(Cl)c3)nn2)c1)Nc1ccc(Cl)c(C(F)(F)F)c1
3. N#Cc1ccc(-n2cc(COc3cccc(NC(=O)Nc4ccc(Cl)c(C(F)(F)F)c4)c3)nn2)cc1
4. COc1ccccc1-n1cc(COc2cccc(NC(=O)Nc3ccc(Cl)c(C(F)(F)F)c3)c2)nn1
5. CCc1ccccc1-n1cc(COc2cccc(NC(=O)Nc3ccc(Cl)c(C(F)(F)F)c3)c2)nn1

**Result**
1. 0.51
2. 0.31
3. 0.47
4. 1.05
5. 0.55
